test system: Escherichia coli; assay: Inhibition of Escherichia coli DNA-dependent RNA polymerase at 10 uM by nucleotide coupled NADPH/pyrophosphate release assay
READOUT_TYPE: inhibition

COC(=O)N/C=C/CCCc1cc(O)c(C(=O)/C(C)=C\c2ccco2)c(=O)o1 : < 20%
CCCCCC(=O)c1c(O)cc(CCC/C=C/NC(=O)OC)oc1=O : < 20%
CCCCCCCCC(=O)c1c(O)cc(CCC/C=C/NC(=O)OC)oc1=O : < 20%

Record "COC(=O)N/C=C/CCCc1cc(O)c(C(=O)/C=C/c2ccc3[nH]ccc3c2)c(=O)o1" , field inhibition: < 20%

Record COC(=O)N/C=C/CCC(C)c1cc(O)c(C(=O)NC/C=C(\C)CCC=C(C)C)c(=O)o1 (stereo unspecified) , field inhibition: < 20%

Record CCCC/C(C)=C/C=C(\C)C(=O)c1ccc(C(C)CC/C=C/NC(=O)OC)cc1O (stereo unspecified) , field inhibition: 38%
